A collection of binders and their measured Kd
- target-under-test: soluble G614 HexaPro spike ectodomain (SARS-CoV-2, UniProt P0DTC2 14-1208)
Number only, in nM; omit the unit.

AB-4 full-length IgG1 (antibody, V domains shown) VH: EVQLEESGTVLARPGASVKMSCKASGYTFTTYWMHWIKQRPGQGLEWIGAIYPGNGDTNYNQKFKDKAKLTAVKSTSSAYMELSSLTNEDSAVYFCTREGIPQLLRTFDYWGQGTSVTVSS VL: DILMTQSPSSLSASLGERVSLTCRASQEIGGYLSWLQEKPDGTIKRLIYAASTLDSGVPKRFSGSRSGSDYSLTISSLESEDFADYYCLQYLSYPWTFGGGTKLEIK	1.14
AB-3 full-length IgG1 (antibody, V domains shown) VH: EVQLEESGTVLARPGASVKMSCKASGYTFTTYWMHWIKQRPGQGLEWIGAIYPGNGDTNYNQKFKDKAKLTAVKSTSSAYMELSSLTNEDSAVYFCTREGIPQKLRTLDVWGQGTSVTVSS VL: DILMTQSPSSLSASLGERVSLTCRASQEISGYLSWLQEKPDGTIKRLIYAASTLDSGVPKRFSGSRSGSDYSLTISSLESEDFADYYCLQYLSYPWTFGGGTKLEIK	2.07

Could you now consider this next binder?
Fill in reported Kd for this entry: AB-2 full-length IgG1 (antibody, V domains shown) VH: EVQLEESGTVLARPGASVKMSCKASGYTFTTYWMHWIKQRPGQGLEWIGAIYPGNGDTNYNQKFKDKAKLTAVKSTSSAYMELSSLTNEDSAVYFCTREGIPQLLRTLDYWGQGTSVTVSS VL: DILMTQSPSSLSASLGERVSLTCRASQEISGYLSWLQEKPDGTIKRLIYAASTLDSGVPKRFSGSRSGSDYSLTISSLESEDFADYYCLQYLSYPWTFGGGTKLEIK
1.69
